Ref: PubChem BioAssay (NCI)

Each entry below carries its reported GI50.
- Test system: HOP-62 NSCLC
- measurement_description: NCI tumour cell line growth inhibition, 48 h

Reference set, count: 2
molecule	measurement_target	GI50
NCCCn1c2c(c3ccc([N+](=O)[O-])cc3c1=O)C(=O)c1cc(-c3ccccc3)ccc1-2	HOP-62 NSCLC	0.406 µM
CNc1cc2nc3cc(NC)c(C)cc3cc2cc1C	HOP-62 NSCLC	1.3 µM

Incoming: Query GI50 for CC[C@@H](C(=O)[C@H](C)[C@H](O)[C@@H](C)[C@H]1O[C@H]([C@@H](CC)C(=O)O)CC[C@H]1C)C1O[C@]2(C=C[C@@H](O)[C@]3(CC[C@@](C)([C@H]4CC[C@](O)(CC)[C@H](C)O4)O3)O2)[C@H](C)C[C@@H]1C (stereo not given in full)
Outgoing: 0.532 µM

Incoming: State its GI50 for this molecule: `Cn1cc(-c2csc(-c3cn(CCCCN4CCCCC4)c4ccc(F)cc34)n2)c2cccnc21`
Outgoing: 14 µM

Incoming: Entry `C[N+](C)(CCCCCC[N+](C)(C)CCCN1C(=O)c2cc3ccccc3cc2C1=O)CCCN1C(=O)c2cc3ccccc3cc2C1=O` needs its GI50 filled in; supply it.
Outgoing: > 37.5 µM

---

- Test system: HT29 colon
- measurement_description: NCI tumour cell line growth inhibition, 48 h
readout_name: TGI

Solved entries (count: 2):
molecule	measurement_target	readout_name	data_value
CCOC(=O)/C(C#N)=C1/Sc2c(ncn(/N=C/c3ccc(OC)cc3)c2=O)N1c1ccccc1	HT29 colon	TGI	> 100 µM
O=C1C(Cl)C2(CC(/C=C/c3ccccc3O)=NN2c2cccc(S(=O)(=O)O)c2)N1c1nc2ccccc2s1 (centres undefined)	HT29 colon	TGI	39 µM

Incoming: Give the reported value of TGI for this record: `CCC/C(Cl)=N\OC(=O)Nc1cccc(C(F)(F)F)c1`
Outgoing: 50.3 µM

Incoming: For the molecule `O=c1c(C2=NCCC2)c(-c2ccc[nH]2)[nH]n1-c1ccccc1` , give its measured TGI value.
Outgoing: > 100 µM

---

- Tested on: M19-MEL melanoma
- measurement_description: NCI tumour cell line growth inhibition, 48 h
Below, each entry is listed with its recorded TGI.

These solved cases illustrate the format of a correct answer.
structure_smiles	TGI
C[C@]12CCC[C@H](O)[C@H]1C[C@H](CO)CC2	> 100 µM
O=C(N/C(=C\c1ccc(/C=C(\NC(=O)c2ccccc2)c2nc3cc(Cl)ccc3[nH]2)cc1)c1nc2cc(Cl)ccc2[nH]1)c1ccccc1	> 100 µM
c1ccc(N=c2nc(N3CCOCC3)ss2)cc1	32 µM
C/C(=N\NS(=O)(=O)c1ccc(C)cc1)c1cc2ccccc2n1C	> 100 µM

Incoming: Tell me its TGI given `COC(=O)N/N=C(\C(=O)Nc1cccc([N+](=O)[O-])c1)c1nc2ccc([N+](=O)[O-])cc2[nH]c1=O` as the entry.
Outgoing: > 100 µM

---

- Test system: A498 renal
- measurement_description: NCI tumour cell line growth inhibition, 48 h; in the data active = GI50 below about 0.43 µM; inactive = the rest
Hi there, use one of these labels in your reply, thanks! active, inactive

Field: example entries. Status: answers known.
molecule	measurement_target	class_name
COc1cc2nc(-c3ccc(Cl)cc3)cc(OCCCN3CCCC3)c2cc1OC	A498 renal	inactive
CC1SC2(CCC(c3ccccc3)CC2)N(NC(=O)c2[nH]c3ccc(F)cc3c2-c2ccccc2)C1=O (configuration not stated)	A498 renal	inactive
COc1ccc(-c2nc(Nc3ccc(-c4nc5ccccc5[nH]4)cc3)nc(N3CCOCC3)n2)cc1	A498 renal	inactive

Incoming: Short answer needed: outcome of this test for NC1CCC(Nc2nc(NCc3cc(Cl)ccc3O)c3ncn(C4CCCC4)c3n2)CC1 (configuration not stated) ?
Outgoing: active

Incoming: Tell me the recorded outcome of this test for `CCCC[n+]1c(/C=C\c2c(OC)cc(OC)cc2OC)ccc2ccccc21` .
Outgoing: active

Incoming: Outcome? CCCCCCC/C=C/[C@H]1O[C@]2(O)C(=O)C=C3C[C@@H](O[C@@H]4O[C@H](CO)[C@@H](O)C(O)[C@@H]4O)C[C@@H]3[C@H]2C=C1C (some centres not stated)
Outgoing: inactive

Incoming: Test call, this molecule: CC[C@@H](C(=O)[C@H](C)[C@H](O)[C@@H](C)[C@H]1O[C@H]([C@@H](CC)C(=O)O)CC[C@H]1C)C1O[C@]2(C=C[C@@H](O)[C@]3(CC[C@@](C)([C@H]4CC[C@](O)(CC)[C@H](C)O4)O3)O2)[C@H](C)C[C@@H]1C (some centres not stated)
Outgoing: active

---

- Tested on: OVCAR-8 ovarian
- measurement_description: NCI tumour cell line growth inhibition, 48 h
Collected TGI values appear next to each entry.
Answer with a number only, understood to be in µM.

Incoming: Specify reported TGI for the compound shown: O=C(COc1ccc(OCC(=O)NNC2=NC(c3cc(F)c(Cl)cc3Cl)CS2)c(Cl)c1)NNC1=NC(c2cc(F)c(Cl)cc2Cl)CS1 (stereo not given)
Outgoing: 64.5

Incoming: Quickly give me recorded TGI for CCCCCCC/C=C/[C@H]1O[C@]2(O)C(=O)C=C3C[C@@H](O[C@@H]4O[C@H](CO)[C@@H](O)C(O)[C@@H]4O)C[C@@H]3[C@H]2C=C1C (stereo not given in full)
Outgoing: 3.92

Incoming: Report TGI for Cc1cc(C)c2c(c1)C1=NCCN1C2(O)c1ccc(Cl)cc1 (stereo not given)
Outgoing: 30.2

Incoming: // fetch TGI given entry `CNc1cc2nc3cc(NC)c(C)cc3cc2cc1C`
Outgoing: 9.83

Incoming: Identify measured TGI associated with `CCOC(=O)c1ccc2c(c1)nc(/C=C/c1ccc(Cl)cc1)n2-c1cc(C(C)(C)C)[nH]n1`
Outgoing: 33.9

Incoming: Find the measured TGI of `O=C(N=Nc1c(O)[nH]c2ccccc12)c1oc2ccccc2c1CN1CCN(c2ccccc2)CC1` and report it.
Outgoing: 13.4

Incoming: State, in one line, measured TGI of CN(C)CC1CCC/C(=C\c2ccc(OC(=O)/C=C/c3ccccc3)cc2)C1=O (stereo not given)
Outgoing: 3.9

Incoming: // fetch TGI given entry `O=C(NNC(=S)Nc1ccc(Br)cc1)c1cc(-c2ccccc2)nc2ccccc12`
Outgoing: 57.7

Incoming: Identify measured TGI associated with `CCC/C(Cl)=N\OC(=O)Nc1cccc(C(F)(F)F)c1`
Outgoing: 32.3

---

- Test system: SF-295 CNS
- measurement_description: NCI tumour cell line growth inhibition, 48 h
# key: entry, value: GI50

Some molecules with known GI50 results, for comparison:
molecule	measurement_target	GI50
O=C1C(Nc2ccc(Br)cc2)=C(I)C(=O)c2ncccc21	SF-295 CNS	7.56 µM
C=C1CC[C@@H]2[C@](C)(COC(C)=O)[C@H](OC(C)=O)CC[C@@]2(C)[C@@H]1CC(Nc1ccc(S(=O)(=O)Nc2cc(C)on2)cc1)C1=CCOC1=O (some centres undefined)	SF-295 CNS	8.13 µM
NCCCCCCCCCCCn1c2c(c3ccccc3c1=O)C(=O)c1ccccc1-2	SF-295 CNS	2.7 µM

Continue with the molecule presented below.
Incoming: Give the observed GI50 of `COc1ccc(-c2nn(-c3cccc(NC(=O)Nc4ccccc4)c3)cc2-c2ccncc2)cc1Cl` for SF-295 CNS.
Outgoing: 2.01 µM

---

Listed next: entries and their corresponding TGI.
- Tested on: M14 melanoma
- measurement_description: NCI tumour cell line growth inhibition, 48 h

# annotated cases, reported TGI shown
compound	TGI
COC(=O)NN1C(C)=C(C(=O)OC)C2(C#N)C(C(=O)OC)=C(C)N(NC(=O)OC)C12N (stereo not drawn)	> 100 µM
Cn1c2ccccc2c(=O)c2c(O)cc3c(c21)CC(C1(C)CO1)O3 (stereo not drawn)	2.93 µM
CC(=O)Nc1ccc(-c2nc3ccccc3s2)cc1C	> 100 µM
COC(=O)C(C(=O)C(=O)Nc1ccccc1C#N)c1nc2ccc([N+](=O)[O-])cc2[nH]c1=O (stereo not drawn)	> 100 µM
O=C(NNc1ccc(F)cc1)C1CCC(CNS(=O)(=O)c2ccc(Cl)c(Cl)c2)CC1 (stereo not drawn)	> 50 µM

Incoming: Annotate the compound `CCOP(=O)(Nc1ccccc1P(=O)(OCC)OCC)OCC` with its measured TGI.
Outgoing: > 100 µM

Incoming: Report TGI, nothing else, for this compound: OC(c1cc2ccccc2[nH]1)C1(c2cccnc2)SCCCS1 (stereo not drawn)
Outgoing: > 100 µM

Incoming: Determine from records and report TGI for `CCN(CC)CCOc1ccc(/C=C2\C[C@H]3[C@H]4CC=C5C[C@@H](O)CC[C@]5(C)[C@H]4CC[C@]3(C)[C@H]2O)cc1OC`
Outgoing: 16.8 µM

---

- Test system: SK-MEL-5 melanoma
- measurement_description: NCI tumour cell line growth inhibition, 48 h
Items are presented alongside their recorded GI50.

In the examples that follow, each entry is paired with its recorded GI50.
compound	GI50
CCOC(=O)c1ccc2c(c1)nc(/C=C/c1ccc(Cl)cc1)n2-c1cc(C(C)(C)C)[nH]n1	3.63 µM
N#Cc1ccsc1NC(=O)COC(=O)c1cccc(S(=O)(=O)N2CCc3ccccc32)c1	21.1 µM
O=C(O)C1C2C=CC(C2)C1C(=O)O (centres undefined)	> 100 µM
O=C(c1ccco1)c1c(C(F)(F)F)nc2ccc(C(F)(F)F)cc2[n+]1[O-]	31.4 µM
O=[N+]([O-])c1ccc(Sc2nc(Cl)nc(NC3CCCC3)n2)cc1	5.32 µM

Incoming: Kindly indicate its recorded GI50. Item: CC1SC2(CCC(c3ccccc3)CC2)N(NC(=O)c2[nH]c3ccc(F)cc3c2-c2ccccc2)C1=O (centres undefined)
Outgoing: 3.85 µM

Incoming: Recall and state the measured GI50 for `Cc1[nH]c(C(=O)Nc2ccccc2OC2CCNCC2)c(Cl)c1Cl` .
Outgoing: 0.88 µM

Incoming: State, in one line, measured GI50 of `COc1cc2nc(-c3ccc(Cl)cc3)cc(OCCCN3CCCC3)c2cc1OC`
Outgoing: 0.961 µM

Incoming: Hello, please tell me recorded GI50 for this one: `NCCCCCCCCCCCn1c2c(c3ccccc3c1=O)C(=O)c1ccccc1-2`
Outgoing: 10.3 µM
